- measurementDescription: amyloid nucleation score (Sup35N fusion, yeast selection) (log enrichment); library NNK2; higher = more nucleation; inactive = no reads after selection;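 also: zero at mode of non-aggregating sequences after 7 days selection at 30°C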
Answer -1 if amyloid nucleation score is under 1, and 1 if it is 1 or more.

1) LMFCIENLAVMESELMGSCR	-1
2) SMLEDRYHSALTENRRDWKQ	-1
3) YRLGGWEVNWRLDFYHRRGM	1
4) GSYYCIDVGASRRPVWILSA	-1
5) LFEFSFITPYGV	-1

Would you kindly look at the next entry?
Q: Determine whether measured amyloid nucleation score meets or exceeds 1 for `LIEVQGSFYIVSALIGYRCG`
A: -1

----------
- measurementDescription: amyloid nucleation score (Sup35N fusion, yeast selection) (log enrichment); library NNK2; higher = more nucleation; inactive = no reads after selection
resultType: amyloid nucleation score
Answers are plain numbers.

Answered cases to consult:
1. TISLPYHHKVSRAMNSRF	-0.028
2. NITMMGLVVTFVAISVRLSL	0.959
3. CTWIYTLTFFARNS	0.01
4. CLRLFTQSGFE	-0.362
5. HWSLGSYFGYNFGR	5.67
6. RMLSRSRWLTI	-0.169

Respectfully, I request amyloid nucleation score for each entry included below.
1. CPFESRIAST
2. HSFTTMFWNSAMY

A:
[0.132, 4.11]

For every item below, please supply its amyloid nucleation score.
1. FEYYIDPRK
2. GSRYLIGVEYE
3. EYSPCPSCT
4. FFSGGIILHYSYPTWEWYRS

A:
1. -1.27
2. 0.319
3. 3.97
4. 2.92

Hi, could you look up amyloid nucleation score for each item in my list?
1. YYSVMWYLMERAIN
2. KLDVAAFVKVAE
3. IVQFYYVMQYRFRYCLDRMH

A:
[-0.975, 6.14, 1.01]
